molecular target: human GluN1/GluN2B NMDA receptors (Homo sapiens, UniProt Q13224); construct: expressed in transfected cells; test: Cell-based calcium flux (FLIPR) assay on cloned human NR1/NR2B ion channels expressed in mammalian cells (standard and HTS buffer variants); conditions: standard assay buffer (0.5 mM MgCl2 dye loading; 137 mM NaCl, 4 mM KCl assay buffer), human GluN1/GluN2B cells, read-out: NR2B IC50 (μM) standard assay
Sequence (Q13224 27-1484, other chains not shown): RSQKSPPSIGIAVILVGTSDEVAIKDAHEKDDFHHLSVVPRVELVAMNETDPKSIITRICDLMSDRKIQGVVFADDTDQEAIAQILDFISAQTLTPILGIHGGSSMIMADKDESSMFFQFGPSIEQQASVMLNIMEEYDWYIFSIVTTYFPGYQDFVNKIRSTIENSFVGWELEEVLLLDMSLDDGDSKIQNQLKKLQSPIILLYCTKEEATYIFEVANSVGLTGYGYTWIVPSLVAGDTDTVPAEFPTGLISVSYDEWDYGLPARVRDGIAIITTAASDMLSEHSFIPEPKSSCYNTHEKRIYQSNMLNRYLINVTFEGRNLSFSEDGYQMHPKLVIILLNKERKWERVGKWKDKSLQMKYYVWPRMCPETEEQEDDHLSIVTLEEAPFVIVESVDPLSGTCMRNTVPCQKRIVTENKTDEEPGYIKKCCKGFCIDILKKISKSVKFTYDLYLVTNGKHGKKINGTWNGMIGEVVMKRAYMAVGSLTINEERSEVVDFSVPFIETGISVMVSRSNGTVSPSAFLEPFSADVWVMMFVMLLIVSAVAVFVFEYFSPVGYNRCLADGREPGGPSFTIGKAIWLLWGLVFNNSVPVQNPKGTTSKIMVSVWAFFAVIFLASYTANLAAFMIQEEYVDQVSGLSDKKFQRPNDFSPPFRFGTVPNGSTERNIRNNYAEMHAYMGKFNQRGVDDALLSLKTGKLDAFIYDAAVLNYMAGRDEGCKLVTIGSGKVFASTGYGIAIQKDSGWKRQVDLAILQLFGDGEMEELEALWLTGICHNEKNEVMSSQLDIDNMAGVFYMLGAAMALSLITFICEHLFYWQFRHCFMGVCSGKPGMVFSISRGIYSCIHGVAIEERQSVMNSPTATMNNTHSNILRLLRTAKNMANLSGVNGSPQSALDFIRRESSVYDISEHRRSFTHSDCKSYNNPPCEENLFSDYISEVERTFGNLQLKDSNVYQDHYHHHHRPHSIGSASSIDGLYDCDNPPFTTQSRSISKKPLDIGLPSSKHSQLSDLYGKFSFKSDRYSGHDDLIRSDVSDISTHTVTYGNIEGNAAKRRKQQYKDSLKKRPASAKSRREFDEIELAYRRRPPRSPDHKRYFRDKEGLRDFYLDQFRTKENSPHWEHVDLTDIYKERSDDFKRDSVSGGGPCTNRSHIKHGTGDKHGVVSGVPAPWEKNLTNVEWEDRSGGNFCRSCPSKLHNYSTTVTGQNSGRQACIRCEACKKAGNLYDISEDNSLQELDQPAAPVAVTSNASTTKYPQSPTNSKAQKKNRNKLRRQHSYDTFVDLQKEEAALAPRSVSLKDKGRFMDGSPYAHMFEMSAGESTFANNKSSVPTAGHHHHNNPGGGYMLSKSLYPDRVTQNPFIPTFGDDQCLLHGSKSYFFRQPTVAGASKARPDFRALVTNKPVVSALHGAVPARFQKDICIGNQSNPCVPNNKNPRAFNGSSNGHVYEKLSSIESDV
# IC50 per record follows
Report the value in µM with no unit label.

- sample_smiles: "N#Cc1cccc(Cn2c(=O)[nH]c3ncc(-c4cccc(C(F)(F)F)c4)cc32)c1"
  assay_system: "human GluN1/GluN2B NMDA receptors (Homo sapiens, UniProt Q13224)"
  value_units: "µM"
  IC50: 0.123

Lab book: IC50 of `CN(C)C(=O)Cn1c(=O)n(C)c2ncc(-c3csc(C(F)(F)F)c3)cc21` noted as 0.019

Lab book: IC50 of `Cc1cc(-c2cnc3c(c2)n(Cc2ccccn2)c(=O)n3C)ccc1F` noted as 0.048

Lab book: IC50 of `Cc1nccc(Cn2c(=O)[nH]c3ncc(-c4cccc(C(F)(F)F)c4)cc32)n1` noted as 0.824

###

target: human GluN1/GluN2B NMDA receptors (Homo sapiens, UniProt Q13224); construct: expressed in transfected cells; assay: Cell-based calcium flux (FLIPR) assay on cloned human NR1/NR2B ion channels expressed in mammalian cells (standard and HTS buffer variants); settings: standard assay buffer (0.5 mM MgCl2 in dye loading buffer; 137 mM NaCl, 4 mM KCl in assay buffer), human GluN1/GluN2B, read-out: NR2B IC50 (μM) standard assay;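 further: stable Tet-On inducible cell line, Ca2+ influx triggered by glutamate at about EC40 plus 10 µM glycine, fluorescent dye read-out over 5 min, normalized to control wells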
# IC50 per record follows

- compound: "COc1ccc(-c2cnc3[nH]c(=O)n(Cc4cccc(F)c4)c3c2)cc1C [Example 498]"
  assay_system: "human GluN1/GluN2B NMDA receptors (Homo sapiens, UniProt Q13224)"
  IC50: "2.22 µM"
- compound: "Cc1nnc(Cn2c(=O)n(C)c3ncc(-c4ccc(F)c(C)c4F)cc32)o1 [Example 575]"
  assay_system: "human GluN1/GluN2B NMDA receptors (Homo sapiens, UniProt Q13224)"
  IC50: "0.028 µM"
- compound: "O=C(Cn1c(=O)[nH]c2ncc(-c3cc(OCCF)cc(C(F)(F)F)c3)cc21)N1CCC1 [Example 539]"
  assay_system: "human GluN1/GluN2B NMDA receptors (Homo sapiens, UniProt Q13224)"
  IC50: "0.333 µM"
- compound: "Cc1c(F)ccc(-c2cnc3c(c2)n(Cc2cn(C)nn2)c(=O)n3C)c1F [Example 574]"
  assay_system: "human GluN1/GluN2B NMDA receptors (Homo sapiens, UniProt Q13224)"
  IC50: "0.046 µM"

Lab book: IC50 of Cc1noc(Cn2c(=O)n(C)c3ncc(-c4ccc(F)c(C)c4F)cc32)n1 [Example 573] noted as 0.043 µM

Lab book: IC50 of O=C(Cn1c(=O)[nH]c2ncc(-c3ccc(F)c(Cl)c3)cc21)c1cccs1 [Example 464] noted as 0.359 µM

Lab book: IC50 of Cc1cc(-c2cnc3c(c2)n(CC(=O)N(C)C)c(=O)n3C)sc1Cl [Example 322] noted as 0.023 µM

Lab book: IC50 of Cn1cc(Cn2c(=O)n(C)c3ncc(-c4cccc(C(F)(F)F)c4)cc32)nn1 [Example 552] noted as 0.13 µM

Lab book: IC50 of Cc1nnc(Cn2c(=O)n(C)c3ncc(-c4ccc(C)s4)cc32)o1 [Example 554] noted as 0.533 µM

Lab book: IC50 of CN(C)C(=O)Cn1c(=O)n(C)c2ncc(-c3ccc(F)c(F)c3)cc21 [Example 421] noted as 0.053 µM

Lab book: IC50 of Cc1c(-c2cnc3[nH]c(=O)n(CC(=O)N4CCC4)c3c2)cccc1C(F)(F)F [Example 329] noted as 0.75 µM

Lab book: IC50 of COc1ccc(-c2cnc3[nH]c(=O)n(Cc4ccccc4C#N)c3c2)cc1F [Example 491] noted as 0.053 µM
